These data points were gathered from patent US8975259B2.

# measured on: Gβγ-GRK2 interaction (UniProt P54311+P63212)
# assay: GRK2 binding to biotinylated Gβ1γ2 on streptavidin agarose
measurement name: IC50

The molecule O=C(O)C1CCCCC1c1c2ccc(=O)c(O)c-2oc2c(O)c(O)ccc12 (stereo not shown) , tested on Gβγ-GRK2 interaction (UniProt P54311+P63212), showed IC50 of ~5 µM

* * *

# measured on: Gβ1γ2 (Gβ1 mutants) (UniProt P54311+P63212, Y145A)
# Construct: made in house; host or cells: Sf9 insect cells (baculovirus), partially purified via (His)6-Gαi1 on Ni-NTA
# assay: Phage ELISA: binding of peptide-displaying phage to wild-type or alanine-substituted b-βγ
# Design: species or system rat
# test context: Gβ1 Tyr145Ala; mean ± SD
measurement name: % of Wild-Type Signal
State the value with its unit after it.

Lab note: measured % of Wild-Type Signal of SCEKRLGVRSCT (phage-displayed) [Compound C5] was 16.7 ± 4.8%

Lab note: measured % of Wild-Type Signal of WCPPKLEQWYDGCA [Compound C2] was 4.5 ± 8.1%

Lab note: measured % of Wild-Type Signal of LCSKAYLLLGQTC [Compound 2F] was 0.1 ± 6.5%

* * *

# measured on: Gβ1γ2 (UniProt P54311+P63212)
# assay: Surface plasmon resonance direct binding to Gβ1γ2
# Parameters: made in house; host or cells: Sf9 insect cells (baculovirus)
# Description: To understand the protein binding characteristics of compounds a surface plasmon resonance (SPR) method was developed for monitoring direct small molecule binding to G βγ subunits using a Reichert SPR instrument. […] Direct binding of “hot spot” binding small molecules was assessed using the Reichert SR7000 Surface Plasmon Resonance dual chamber instrument equipped with an autosampler (Reichert, Depew, N.Y.). […] Best fit kinetic parameters were determined using kinetic titration model and ClampXP ver. […]
measurement name: Kd (nM)
Value expressed in nM; do not type the unit.

The compound O=C(O)C1CCCCC1c1c2ccc(=O)c(O)c-2oc2c(O)c(O)ccc12 (stereo not shown) , tested on Gβ1γ2 (UniProt P54311+P63212), showed Kd of 100

* * *

# measured on: Gβ1γ2 (Gβ1 mutants) (UniProt P54311+P63212, H311A)
# Construct: made in house; host or cells: Sf9 insect cells (baculovirus), partially purified via (His)6-Gαi1 on Ni-NTA
# assay: Phage ELISA: binding of peptide-displaying phage to wild-type or alanine-substituted b-βγ
# Parameters: species or system rat
# test context: Gβ1 His311Ala; mean ± SD
Listed sequences paired with reported % of Wild-Type Signal
Value expressed in %; do not type the unit.

Study these solved cases before continuing.
| input sequence | measured on | % of Wild-Type Signal (%) |
| --- | --- | --- |
| SIGKALFILGYPDYD [Compound 3.14] | Gβ1γ2 (Gβ1 mutants) (UniProt P54311+P63212, H311A) | 93.4 |
| SCKRTKAQILLAPCT [Compound C1] | Gβ1γ2 (Gβ1 mutants) (UniProt P54311+P63212, H311A) | 3.0 |
| SCEKRYGIEFCT [Compound C4] | Gβ1γ2 (Gβ1 mutants) (UniProt P54311+P63212, H311A) | 36.5 |
| WCPPKAMTQLGIKAC [Compound C14] | Gβ1γ2 (Gβ1 mutants) (UniProt P54311+P63212, H311A) | 6.1 |
| LCSKAYLLLGQTC [Compound 2F] | Gβ1γ2 (Gβ1 mutants) (UniProt P54311+P63212, H311A) | 23.6 |

Lab note: measured % of Wild-Type Signal of SCEKRLGVRSCT (phage-displayed) [Compound C5] was 58.7

Lab note: measured % of Wild-Type Signal of SCGHGLKVQSTIGACA [Compound 3C] was 30.5

Lab note: measured % of Wild-Type Signal of WCPPKLEQWYDGCA [Compound C2] was 11.7

Lab note: measured % of Wild-Type Signal of SCARFFGTPGCT [Compound C8] was 51.6

* * *

Listed sequences paired with reported % of Wild-Type Signal
# measured on: Gβ1γ2 (Gβ1 mutants) (UniProt P54311+P63212, R314A)
# Construct: made in house; host or cells: Sf9 insect cells (baculovirus), partially purified via (His)6-Gαi1 on Ni-NTA
# assay: Phage ELISA: binding of peptide-displaying phage to wild-type or alanine-substituted b-βγ
# Parameters: species or system rat
# test context: Gβ1 Arg314Ala; mean ± SD
Value expressed in %; do not type the unit.

Lab note: measured % of Wild-Type Signal of SCEKRYGIEFCT [Compound C4] was 1.4

Lab note: measured % of Wild-Type Signal of SCEKRLGVRSCT (phage-displayed) [Compound C5] was 76.5

Lab note: measured % of Wild-Type Signal of SCARFFGTPGCT [Compound C8] was 20.8

Lab note: measured % of Wild-Type Signal of SIGKALFILGYPDYD [Compound 3.14] was 50.2

Lab note: measured % of Wild-Type Signal of SCKRTKAQILLAPCT [Compound C1] was 2.8

Lab note: measured % of Wild-Type Signal of WCPPKLEQWYDGCA [Compound C2] was 1.3

Lab note: measured % of Wild-Type Signal of WCPPKAMTQLGIKAC [Compound C14] was 3.9

Lab note: measured % of Wild-Type Signal of LCSKAYLLLGQTC [Compound 2F] was 2.4

Lab note: measured % of Wild-Type Signal of SCGHGLKVQSTIGACA [Compound 3C] was 8.3

* * *

# Test system: PI3Kγ
# assay: Gβ1γ2-dependent activation of purified p101/p110 PI3Kγ
# Assay type: biochemical
# test context: Table 19, effector IC50; read-out: PI 3-Kg
# Method: Purified PLCβ2 (0.25 ng) was assayed in the presence (▴) or absence (▪) of 100 nM purified Gβ1γ2. […] Assays contained 10 ng of purified p101/p110 PI3Kγ heterodimer with or without 100 nM purified Gβ1γ2. Left panel: (▴) 100 nM Gβ1γ2 or (▪) no βγ. […] M119 or M201 and 25 nM purified GRK2 were added simultaneously to 250 nM biotinylated Gβ1γ2 (bGβ1γ2) immobilized on streptavidin agarose. GRK2 was detected with antibody to GRK2. […]
Listed molecules paired with reported pIC50
Please express pIC50 as -log10 of the molar concentration.

| molecule | pIC50 |
| --- | --- |
| O=C1c2ccccc2C(=O)c2c(Nc3cc4c5c(ccc6c7ccc8c9c(cc(Nc%10cccc%11c%10C(=O)c%10ccccc%10C%11=O)c(c3c56)c97)-c3ccccc3C8=O)C(=O)c3ccccc3-4)cccc21 [Compound M231] | 4.87 |

Turning now to a further record.
Lab note: measured pIC50 of O=C(O)C1CCCCC1c1c2ccc(=O)c(O)c-2oc2c(O)c(O)ccc12 (centres unmarked) [Compound M119] was 5.10

* * *

# measured on: Gαi1-Gβ1γ2 interaction (UniProt P54311+P63212)
# Construct: made in house; host or cells: b-βγ: Sf9 insect cells
# assay: Flow cytometry competition for FITC-Gαi1 binding to immobilized b-Gβ1γ2
# test context: peptides; read-out: IC50 for competition with Gαi binding to Gβ1γ2
pIC50: −log10 of the molar value. No end group written: not given here.
measurement name: pIC50

Lab note: measured pIC50 of SIRKALNILAYPDYD [SIRK(GIyIOAIa)] was ~4.10

* * *

# measured on: Gβ1γ2 (Gβ1 mutants) (UniProt P54311+P63212, D186A)
# Construct: made in house; host or cells: Sf9 insect cells (baculovirus), partially purified via (His)6-Gαi1 on Ni-NTA
# assay: Phage ELISA: binding of peptide-displaying phage to wild-type or alanine-substituted b-βγ
# Set-up: species or system rat
# test context: Gβ1 Asp186Ala; mean ± SD
# thresholds on % of Wild-Type Signal define classes: zone 1: < 4%; zone 2: ≥ 4% and < 50%; zone 3: ≥ 50%

Answered examples (5):
| input sequence | class assignment |
| --- | --- |
| WCPPKAMTQLGIKAC [Compound C14] | zone 1 |
| WCPPKLEQWYDGCA [Compound C2] | zone 3 |
| SIGKALFILGYPDYD [Compound 3.14] | zone 2 |
| SCEKRLGVRSCT (phage-displayed) [Compound C5] | zone 2 |
| SCGHGLKVQSTIGACA [Compound 3C] | zone 2 |

Task: Into which bin does this sequence go? LCSKAYLLLGQTC [Compound 2F]
Output: zone 1

Task: Into which bin does this sequence go? SCARFFGTPGCT [Compound C8]
Output: zone 3

Task: Into which bin does this sequence go? SCKRTKAQILLAPCT [Compound C1]
Output: zone 1

* * *

Listed sequences paired with reported % of Wild-Type Signal
# measured on: Gβ1γ2 (Gβ1 mutants) (UniProt P54311+P63212, D246S)
# Construct: made in house; host or cells: Sf9 insect cells (baculovirus), partially purified via (His)6-Gαi1 on Ni-NTA
# assay: Phage ELISA: binding of peptide-displaying phage to wild-type or alanine-substituted b-βγ
# Set-up: species or system rat
# test context: Gβ1 Asp246Ser; mean ± SD
# From the text: Wild-type Gβ1 and Gp1 mutants were made in the baculovirus vector PDW464 which encodes a biotinylation site at a lysine upstream of the amino terminus of Gβ1 (Goubaeva, et al. (2003) supra). Mutants were generated by overlap extension PCR using standard protocols. The wild-type and mutant Gβ1 constructs consisted of a 20 amino acid biotin acceptor peptide (BAP) sequence fused in-frame with the amino-terminus of rat Gβ1 subunit. […]
Value expressed in %; do not type the unit.

Study these solved cases before continuing.
| input sequence | % of Wild-Type Signal / % |
| --- | --- |
| WCPPKAMTQLGIKAC [Compound C14] | 6.3 |
| WCPPKLEQWYDGCA [Compound C2] | 5.9 |
| SCGHGLKVQSTIGACA [Compound 3C] | 2.0 |
| SIGKALFILGYPDYD [Compound 3.14] | 66.5 |
| SCEKRYGIEFCT [Compound C4] | 35.8 |
| LCSKAYLLLGQTC [Compound 2F] | 0.6 |
| SCEKRLGVRSCT (phage-displayed) [Compound C5] | 56.3 |
| SCKRTKAQILLAPCT [Compound C1] | 2.3 |

Turning now to a further record.
Lab note: measured % of Wild-Type Signal of SCARFFGTPGCT [Compound C8] was 60.8
